- target.or.system: recombinant human LOX-5 (Homo sapiens)
- Construct: expressed in insect cells (Amino Acids 1-674) was obtained from Cayman; purchased Cayman 60402; host or cells: insect cells
- Sequence (P09917 whole entry, the tested form may be a part): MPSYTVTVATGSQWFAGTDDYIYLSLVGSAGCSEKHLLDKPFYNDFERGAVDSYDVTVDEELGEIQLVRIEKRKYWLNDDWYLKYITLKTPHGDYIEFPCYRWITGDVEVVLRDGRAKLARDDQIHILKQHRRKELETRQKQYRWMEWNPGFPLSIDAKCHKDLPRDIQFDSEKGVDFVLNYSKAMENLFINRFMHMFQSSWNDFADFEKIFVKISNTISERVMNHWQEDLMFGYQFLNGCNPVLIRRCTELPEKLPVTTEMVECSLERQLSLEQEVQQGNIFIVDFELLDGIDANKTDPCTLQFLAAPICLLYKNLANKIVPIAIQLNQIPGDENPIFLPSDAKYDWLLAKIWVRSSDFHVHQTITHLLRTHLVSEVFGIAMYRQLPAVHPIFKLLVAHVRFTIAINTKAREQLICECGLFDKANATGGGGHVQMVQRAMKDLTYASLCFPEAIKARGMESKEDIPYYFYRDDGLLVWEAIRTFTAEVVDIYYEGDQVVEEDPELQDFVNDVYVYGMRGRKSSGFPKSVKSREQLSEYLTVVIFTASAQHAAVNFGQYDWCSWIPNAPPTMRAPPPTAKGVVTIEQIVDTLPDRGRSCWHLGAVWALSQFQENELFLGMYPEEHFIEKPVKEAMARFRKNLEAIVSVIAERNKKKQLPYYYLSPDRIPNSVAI
- measurement.description: Biochemical LOX-5 assay
measurement.name: IC50

# input Give me measured IC50, please, for this compound: CC(C)=CCCC1(C)C=CC2=C(O1)C(=O)c1ccccc1C2=O (stereo not shown)
# output > 10 µM

----------
- measurement.description: in vitro
- test.context: human
measurement.name: viability at 10 µM (%)
The reply should contain only the number, in %.

# input Give me measured viability at 10 µM, please, for this compound: CN[C@@H]1C[C@H]2O[C@@](C)([C@@H]1OC)n1c3ccccc3c3c4c(c5c6ccccc6n2c5c31)C(=O)NC4 [Staurosporine, staurosporine, reference compound]
# output 10.4

----------
- measurement.description: SK-MEL-28 cell line toxicity (Cell titer Glo viability)
- Assay type: cell-based
- test.context: human, SK-MEL-28 melanoma cells; SK-MEL-28, 10 uM, 72 h
measurement.name: viability at 72 h, 10 µM (%)
The reply should contain only the number, in %.

# input Give me measured viability at 72 h, 10 µM, please, for this compound: CN[C@@H]1C[C@H]2O[C@@](C)([C@@H]1OC)n1c3ccccc3c3c4c(c5c6ccccc6n2c5c31)C(=O)NC4 [Staurosporine, staurosporine, reference compound]
# output 8.55

----------
- measurement.description: PC3 cell line toxicity (Cell titer Glo viability)
- Assay type: cell-based
- test.context: human, PC3 prostate adenocarcinoma cells; PC3, 0.0046 uM, 72 h
measurement.name: viability at 72 h, 0.0046 µM (%)
The reply should contain only the number, in %.

# input Give me measured viability at 72 h, 0.0046 µM, please, for this compound: CN[C@@H]1C[C@H]2O[C@@](C)([C@@H]1OC)n1c3ccccc3c3c4c(c5c6ccccc6n2c5c31)C(=O)NC4 [Staurosporine, staurosporine, reference compound]
# output 43.2

----------
- measurement.description: in vitro
- test.context: human
- Protocol: The half maximal inhibition concentration (IC50) for each compound was determined by harvesting cells during the logarithmic growth period and then counting cell number using hemocytometer. […] Luminescence was then recorded using Synergy Neo2Multi-mode Reader. […] The formula for calculating surviving rate is shown below, and the intersect IC50 was calculated according to the dose-response curve generated by the software: […]
measurement.name: viability at 3.3 µM
Report as: number unit

# input Give me measured viability at 3.3 µM, please, for this compound: CN[C@@H]1C[C@H]2O[C@@](C)([C@@H]1OC)n1c3ccccc3c3c4c(c5c6ccccc6n2c5c31)C(=O)NC4 [Staurosporine, staurosporine, reference compound]
# output 11.7%

----------
- measurement.description: in vitro
- test.context: human
- Protocol: The half maximal inhibition concentration (IC50) for each compound was determined by harvesting cells during the logarithmic growth period and then counting cell number using hemocytometer. […] Luminescence was then recorded using Synergy Neo2Multi-mode Reader. […] The formula for calculating surviving rate is shown below, and the intersect IC50 was calculated according to the dose-response curve generated by the software: […]
measurement.name: viability at 0.00051 µM (%)
The reply should contain only the number, in %.

# input Give me measured viability at 0.00051 µM, please, for this molecule: CN[C@@H]1C[C@H]2O[C@@](C)([C@@H]1OC)n1c3ccccc3c3c4c(c5c6ccccc6n2c5c31)C(=O)NC4 [Staurosporine, staurosporine, reference compound]
# output 96.5
